- Tested on: chronic lymphocytic leukemia (CLL) samples classified by expression subtype (Ec-i, EC-m1, EC-m2, EC-m3, EC-m4, EC-o, EC-u1, EC-u2)
- PROTOCOL TEXT: Ex-vivo drug sensitivity (percent viability) of CLL samples compared between expression subtypes (ECs); note: test concentration or dose not given here
- Assay type: cell-based
- CONDITION SET: all ECs other than EC-m4
ENDPOINT NAME: Mean viability in the other ECs

// Mean viability in the other ECs value for C[C@H](Nc1ncnc2[nH]cnc12)c1cc2cccc(Cl)c2c(=O)n1-c1ccccc1 [duvelisib] : 0.87

Record summary for CC[C@H](Nc1ncnc2nc[nH]c12)c1nc2cccc(F)c2c(=O)n1-c1ccccc1 [idelalisib] : reported Mean viability in the other ECs = 0.93

Measured Mean viability in the other ECs of NC1(c2ccc(-c3nc4ccn5c(=O)[nH]nc5c4cc3-c3ccccc3)cc2)CCC1 [MK-2206] : 1.00

Mean viability in the other ECs measured on COc1cc(N2CCC(N3CCN(C)CC3)CC2)ccc1Nc1ncc(Cl)c(Nc2ccccc2S(=O)(=O)C(C)C)n1 [TAE684] = 1.01

* * *

I'd be grateful if you could share measured Mean viability in the other ECs for these entries.
- Tested on: chronic lymphocytic leukemia (CLL) samples classified by expression subtype (Ec-i, EC-m1, EC-m2, EC-m3, EC-m4, EC-o, EC-u1, EC-u2)
- PROTOCOL TEXT: Ex-vivo drug sensitivity (percent viability) of CLL samples compared between expression subtypes (ECs); note: test concentration or dose not given here
- Assay type: cell-based
- CONDITION SET: all ECs other than EC-u1
*1 amine or outer side, *2 acyl side, *3 side chain or, on linkers, in order; H or OH if unused. Where a SMILES comes first, the peptide text is derived from it. Bridges are numbered along the chain shown (N, C = ends). Roman numbers before positions name the chains, in order. [ ]: non-standard residue; d: D form. Actinocin(9to1) = Cc1c2oc3c(C)ccc(C(=O)[*:1])c3nc-2c(C(=O)[*:2])c(N)c1=O; NMeV = CN[C@H](C(=O)O)C(C)C; Sar = CNCC(=O)O
// no unit, no text: just the number

Looking up Cc1c2oc3c(C)ccc(C(=O)N[C@@H]4C(=O)N[C@H](C(C)C)C(=O)N5CCC[C@H]5C(=O)N(C)CC(=O)N(C)[C@@H](C(C)C)C(=O)O[C@@H]4C)c3nc-2c(C(=O)N[C@@H]2C(=O)N[C@H](C(C)C)C(=O)N3CCC[C@H]3C(=O)N(C)CC(=O)N(C)[C@@H](C(C)C)C(=O)O[C@@H]2C)c(N)c1=O [actinomycin D] (I: T[dV]P[Sar][NMeV] / II: T[dV]P[Sar][NMeV]; ester I:1-I:C, II:1-II:C; linker I:N-II:N via Actinocin(9to1)) , I found its Mean viability in the other ECs recorded as 0.27

What the record says about Cn1cnc2c(F)c(Nc3ccc(Br)cc3Cl)c(C(=O)NOCCO)cc21 : Mean viability in the other ECs is 0.94

Recorded result, CC(C)c1cc(C(=O)N2Cc3ccc(CN4CCN(C)CC4)cc3C2)c(O)cc1O , Mean viability in the other ECs: 0.75

response.value for CO[C@H]1C[C@@H]2CC[C@@H](C)[C@@](O)(O2)C(=O)C(=O)N2CCCC[C@H]2C(=O)O[C@H]([C@H](C)C[C@@H]2CC[C@@H](OCCO)[C@H](OC)C2)CC(=O)[C@H](C)/C=C(\C)[C@@H](O)[C@@H](OC)C(=O)[C@H](C)C[C@H](C)/C=C/C=C/C=C/1C (field: Mean viability in the other ECs) = 0.95

NC1(c2ccc(-c3nc4ccn5c(=O)[nH]nc5c4cc3-c3ccccc3)cc2)CCC1 has a reported Mean viability in the other ECs of 1.02

Mean viability in the other ECs recorded for this compound, C[C@H](Nc1ncnc2[nH]cnc12)c1cc2cccc(Cl)c2c(=O)n1-c1ccccc1 , is 0.90

The recorded Mean viability in the other ECs for entry COCCn1c2c([n+](Cc3cnccn3)c1C)C(=O)c1ccccc1C2=O equals 0.64

* * *

- Tested on: chronic lymphocytic leukemia (CLL) samples classified by expression subtype (Ec-i, EC-m1, EC-m2, EC-m3, EC-m4, EC-o, EC-u1, EC-u2)
- PROTOCOL TEXT: Ex-vivo drug sensitivity (percent viability) of CLL samples compared between expression subtypes (ECs); note: test concentration or dose not given here
- Type: cell-based
- CONDITION SET: expression cluster EC-m3
ENDPOINT NAME: Mean viability in the EC
I'd appreciate a reply containing only the number, no unit.

Lab note: Cn1cnc2c(F)c(Nc3ccc(Br)cc3Cl)c(C(=O)NOCCO)cc21 [selumetinib] gave Mean viability in the EC of 0.97

Measured Mean viability in the EC of COc1cc(Nc2ncc(F)c(Nc3ccc4c(n3)NC(=O)C(C)(C)O4)n2)cc(OC)c1OC [tamatinib] : 1.09

Form: molecule = CN(C)C/C=C/C(=O)Nc1cc2c(Nc3ccc(F)c(Cl)c3)ncnc2cc1O[C@H]1CCOC1 [afatinib] ; Mean viability in the EC = 1.03

The reported value for CC[C@H](Nc1ncnc2nc[nH]c12)c1nc2cccc(F)c2c(=O)n1-c1ccccc1 [idelalisib] in terms of Mean viability in the EC is 1.02

* * *

Answer each item with its documented Mean viability in the other ECs.
- Test system: chronic lymphocytic leukemia (CLL) samples classified by expression subtype (Ec-i, EC-m1, EC-m2, EC-m3, EC-m4, EC-o, EC-u1, EC-u2)
- PROTOCOL TEXT: Ex-vivo drug sensitivity (percent viability) of CLL samples compared between expression subtypes (ECs); note: test concentration or dose not given here
- Type: cell-based
- CONDITION SET: all ECs other than EC-u1
Would you mind answering with just the numeric figure?

The recorded Mean viability in the other ECs for entry CC1(C)CCC(c2ccc(Cl)cc2)=C(CN2CCN(c3ccc(C(=O)NS(=O)(=O)c4ccc(N[C@H](CCN5CCOCC5)CSc5ccccc5)c(S(=O)(=O)C(F)(F)F)c4)cc3)CC2)C1 [navitoclax] equals 0.82

What the record says about COc1cc(N2CCC(N3CCN(C)CC3)CC2)ccc1Nc1ncc(Cl)c(Nc2ccccc2S(=O)(=O)C(C)C)n1 [TAE684] : Mean viability in the other ECs is 1.03

Query CC1(C)CCC(CN2CCN(c3ccc(C(=O)NS(=O)(=O)c4ccc(NCC5CCOCC5)c([N+](=O)[O-])c4)c(Oc4cnc5[nH]ccc5c4)c3)CC2)=C(c2ccc(Cl)cc2)C1 [venetoclax] yields Mean viability in the other ECs of 0.45

Item: O=C(Cc1ccc(-c2ccc(OCCN3CCOCC3)cc2)cn1)NCc1ccccc1 [KX2-391] | Mean viability in the other ECs: 0.91

// Mean viability in the other ECs value for C=CCn1c(=O)c2cnc(Nc3ccc(N4CCN(C)CC4)cc3)nc2n1-c1cccc(C(C)(C)O)n1 [MK-1775] : 1.02

The molecule listed as O=C(Nc1cccc(Nc2ncc(Br)c(NCCc3cnc[nH]3)n2)c1)N1CCCC1 [BX912] shows Mean viability in the other ECs equal to 1.07

Sure, the documented Mean viability in the other ECs for NC(=O)Nc1cc(-c2cccc(F)c2)sc1C(=O)N[C@H]1CCCNC1 [AZD7762] is 0.88

// Mean viability in the other ECs lookup, molecule = CC[C@H](Nc1ncnc2nc[nH]c12)c1nc2cccc(F)c2c(=O)n1-c1ccccc1 [idelalisib] , result: 0.96

Lab note: measured Mean viability in the other ECs of CN1CCC(CNc2ccc3ncc(-c4cccc(OC(F)(F)F)c4)n3n2)CC1 [SGI-1776] was 1.04

Mean viability in the other ECs reported for this molecule C=CC(=O)Nc1cccc(Nc2nc(Nc3ccc(OCCOC)cc3)ncc2F)c1 [spebrutinib] : 0.98

Measured Mean viability in the other ECs of COc1cc(Nc2ncc(F)c(Nc3ccc4c(n3)NC(=O)C(C)(C)O4)n2)cc(OC)c1OC [tamatinib] : 1.06

* * *

- Test system: chronic lymphocytic leukemia (CLL) samples classified by expression subtype (Ec-i, EC-m1, EC-m2, EC-m3, EC-m4, EC-o, EC-u1, EC-u2)
- PROTOCOL TEXT: Ex-vivo drug sensitivity (percent viability) of CLL samples compared between expression subtypes (ECs); note: test concentration or dose not given here
- Assay type: cell-based
- CONDITION SET: expression cluster EC-u2
ENDPOINT NAME: Mean viability in the EC
Response field accepts a number only; no unit should be typed.

Record C=CC(=O)Nc1cccc(Nc2nc(Nc3ccc(OCCOC)cc3)ncc2F)c1 . Reported Mean viability in the EC: 0.88

Quick note, Mean viability in the EC for CC(C)c1cc(C(=O)N2Cc3ccc(CN4CCN(C)CC4)cc3C2)c(O)cc1O landed at 0.50

Input CC[C@H](Nc1ncnc2nc[nH]c12)c1nc2cccc(F)c2c(=O)n1-c1ccccc1 . Output Mean viability in the EC: 0.79

Just so you know, measured Mean viability in the EC for C[C@H](Nc1ncnc2[nH]cnc12)c1cc2cccc(Cl)c2c(=O)n1-c1ccccc1 came out at 0.73

The compound listed as C[C@@H]1CN(CC(=O)Nc2ccc3c(c2)Cc2cccc(-c4cc(=O)cc(N5CCOCC5)o4)c2S3)C[C@H](C)O1 has a reported Mean viability in the EC of 0.90

Record Cn1cnc2c(F)c(Nc3ccc(Br)cc3Cl)c(C(=O)NOCCO)cc21 , field Mean viability in the EC: 0.79

Reported Mean viability in the EC for NC(=O)Nc1cc(-c2cccc(F)c2)sc1C(=O)N[C@H]1CCCNC1 was 0.51

Lab note: measured Mean viability in the EC of C=C(C)[C@H]1Cc2c(ccc3c2O[C@@H]2COc4cc(OC)c(OC)cc4[C@@H]2C3=O)O1 was 0.92

Field Mean viability in the EC (entry CC[C@H]1CN2CCc3cc(OC)c(OC)cc3[C@@H]2C[C@@H]1C[C@H]1NCCc2cc(O)c(OC)cc21 ) reads 0.72
